# System: RAW264.7
# ASSAY PROTOCOL: Anti-inflammatory activity in mouse RAW264.7 cells assessed as inhibition of LPS-induced NO production at 10 uM incubated pretreated with compound for 1 hr followed by LPS-induction and measured after 24 hrs by Griess reagent based assay relative to control
# Format: functional
# STUDY CONDITIONS: time 25 hrs
inhibition at 10 µM vs 70%: at or above is TRUE, below is FALSE.

- STRUCTURE: "C=CCOc1ccc(/C=C/c2cc(OC)cc(OC)c2-c2cnnn2C(=O)NCCCl)cc1"
  EXPERIMENTAL SYSTEM: "RAW264.7"
  CLASS LABEL: "TRUE"
- STRUCTURE: "C=CCOc1ccc(/C=C/c2cc(OC)cc(OC)c2-c2cnnn2C(=O)NCC)cc1"
  EXPERIMENTAL SYSTEM: "RAW264.7"
  CLASS LABEL: "FALSE"
- STRUCTURE: "C=CCCCOc1ccc(/C=C/c2cc(OC)cc(OC)c2-c2cnnn2C(=O)NC(C)C)cc1"
  EXPERIMENTAL SYSTEM: "RAW264.7"
  CLASS LABEL: "FALSE"
- STRUCTURE: "C=CCCCOc1ccc(/C=C/c2cc(OC)cc(OC)c2-c2cnnn2C(=O)NCCc2ccccc2)cc1"
  EXPERIMENTAL SYSTEM: "RAW264.7"
  CLASS LABEL: "FALSE"

Ask: Assess whether reported inhibition at 10 µM for C=CCOc1ccc(/C=C/c2cc(OC)cc(OC)c2-c2cnnn2C(=O)NC(C)C)cc1 sits at 70% or higher.
Result: TRUE

Ask: Hello, I need to know if C=CCCCOc1ccc(/C=C/c2cc(OC)cc(OC)c2-c2cnn[nH]2)cc1 has measured inhibition at 10 µM not below 70%. Thanks!
Result: FALSE

Ask: Form field: inhibition at 10 µM at least 70%? Entry: C=C(C)COc1ccc(/C=C/c2cc(OC)cc(OC)c2-c2cnnn2C(=O)NCCC)cc1
Result: TRUE

Ask: Can C=C(C)COc1ccc(/C=C/c2cc(OC)cc(OC)c2-c2cnnn2C(=O)NCCc2ccccc2)cc1 be said to have inhibition at 10 µM at or above 70%?
Result: FALSE

Ask: Hi, just wondering whether C=CCCCOc1ccc(/C=C/c2cc(OC)cc(OC)c2-c2cnnn2C(=O)NCCC)cc1 shows inhibition at 10 µM of 70% or higher.
Result: FALSE

Cited source for all entries: ChEMBL document CHEMBL5532652
